# Test system: A549
# TEST PROTOCOL: Antiproliferative activity against human A549 cells after 72 hrs by MTT assay
# Type: functional, cell-based
# SETUP CONDITIONS: A549, 72 h
pIC50: −log10 of the molar value.
// values below are reported pIC50
ENDPOINT LABEL: pIC50

* COc1ccc(/C=C/C(=O)O[C@@H]2O[C@@H]3O[C@@]4(C)CC[C@H]5[C@H](C)[C@H](OC(=O)/C=C/c6ccc(OC)cc6)C[C@@H]([C@H]2C)[C@@]35OO4)cc1 | 5.15
* COc1ccccc1/C=C/C(=O)O[C@@H]1O[C@@H]2O[C@@]3(C)CC[C@H]4[C@H](C)[C@H](OC(=O)/C=C/c5ccccc5OC)C[C@@H]([C@H]1C)[C@@]24OO3 | 5.59
* C[C@@H]1[C@H](OC(=O)CCc2ccccc2)C[C@H]2[C@@H](C)[C@H](OC(=O)CCc3ccccc3)O[C@@H]3O[C@@]4(C)CC[C@@H]1[C@]32OO4 | 4.36
* C[C@@H]1[C@H](OC(=O)/C=C/c2ccccc2F)C[C@H]2[C@@H](C)[C@H](OC(=O)/C=C/c3ccccc3F)O[C@@H]3O[C@@]4(C)CC[C@@H]1[C@]32OO4 | 5.33
* C[C@@H]1[C@H](OC(=O)/C=C/c2ccccc2)C[C@H]2[C@@H](C)[C@H](OC(=O)/C=C/c3ccccc3)O[C@@H]3O[C@@]4(C)CC[C@@H]1[C@]32OO4 | 5.35
